# experimental_system: CB2 receptor (Homo sapiens, UniProt P34972)
# Sequence (P34972 whole entry): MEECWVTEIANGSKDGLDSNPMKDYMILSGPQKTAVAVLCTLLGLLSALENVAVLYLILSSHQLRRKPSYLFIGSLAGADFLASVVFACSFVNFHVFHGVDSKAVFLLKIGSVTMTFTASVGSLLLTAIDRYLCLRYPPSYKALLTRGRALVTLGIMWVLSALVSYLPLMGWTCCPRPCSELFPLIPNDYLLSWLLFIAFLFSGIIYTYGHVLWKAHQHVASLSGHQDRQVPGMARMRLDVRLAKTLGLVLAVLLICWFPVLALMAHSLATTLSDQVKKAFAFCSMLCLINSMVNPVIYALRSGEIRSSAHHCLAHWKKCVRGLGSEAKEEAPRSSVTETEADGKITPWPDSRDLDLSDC
# assay_comment: CB2 binding assay (displacement of radiolabeled agonist)
CB2/CB1 affinity ratio values by entry
# answer = number (no unit)

Reference set, count: 3
[
  {
    "compound": "CCCCCCC(C)(C)c1cc(O)c2c(c1)OC1CCCCCC21 (stereo not shown) [Formula III]",
    "CB2/CB1 affinity ratio": 14
  },
  {
    "compound": "CCCCC(C)(C)c1cc(O)c([C@H]2C=C(CO)[C@H]3C[C@@H]2C3(C)C)c(O)c1 [Formula II]",
    "CB2/CB1 affinity ratio": 21
  },
  {
    "compound": "O=S(=O)(NCC1CC1)c1ccc(Nc2ccc(Cl)cc2Cl)cc1C(F)(F)F [Formula IV]",
    "CB2/CB1 affinity ratio": 10
  }
]

Now let's try a different one.
[in] GET /values?readout=CB2/CB1 affinity ratio&item= CCCCCCC(C)(C)c1cc(O)c([C@H]2CC(=O)[C@H]3C[C@@H]2C3(C)C)c(OC(=O)/C=C/C(=O)O)c1 [Formula I]
[out] 34
